Assay: melting temperature; fluorescence melt of hairpins on a sequencing array, two-state fit, raised by 9.35 °C to match UV melts
Conditions: sodium 0.088 M
Reported Tm values for a set of sequences
// note: answer is a bare numeric in °C

Some solved cases for reference:
>>> print(df.to_string())
                  construct_sequence  meas_value
0      AACAAGAAATTGTT (((((....)))))        23.3
1  GATCAGTAACCTGATC ((((((....))))))        47.4

Asked: Look up Tm for this sequence: GCATTCGAAAGAAGTTGC ((((((....)))..)))
Given back: 26

Asked: If you can, please state the reported Tm value of GATCCCCGAAAGGGAATC (((.(((....))).))) .
Given back: 44.9

Asked: Can you look up the measured Tm of GCGAACGCTCGC ((((....)))) for me?
Given back: 59.6

Asked: Item under review: GCGATAGTCGC ((((...)))) . Reported Tm?
Given back: 52.5

Asked: So what does the record say about Tm for GGGATGAAAATCCC (((((....))))) ?
Given back: 56.5

Asked: If you can, please state the reported Tm value of GTATCCGAAAGGACTAC ((((((....))).))) .
Given back: 35.9

Asked: Which Tm value belongs to GGGGCGGGAAACCACCCC ((((.((....)).)))) ?
Given back: 55

Asked: Recorded Tm for GTCTACGAAAGTAGCGAC ((((((....)))..))) , please?
Given back: 47

Asked: Which Tm value is on record for GCTCCGCGAAAGCCGCGC ((.(.((....)).).)) ?
Given back: 36.2

Asked: Consider the sequence shown here: GATCACTCTGTGATC ((((((...)))))) What is its recorded Tm?
Given back: 61.6

---

Assay: melting temperature; fluorescence melt of hairpins on a sequencing array, two-state fit, raised by 9.35 °C to match UV melts
Details: sodium 0.088 M
Binarize Tm at 50 °C; below is Criterion met, at or above is Criterion not met.

Worked cases, answers included:
                      construct_sequence     discrete_label
0      GATCAAATGTTTGATC ((((((....))))))      Criterion met
1  GTGGCAGGAAACCGCCAC (((((.(....).)))))  Criterion not met
2  GAGCCCGAAAGGGCACTC ((((((....)))..)))  Criterion not met
3      GATCAAACCCTTGATC ((((((....))))))      Criterion met

Asked: For this sequence, is Tm lower than 50 °C? GATCTTCGATAAGATC ((((((....))))))
Given back: Criterion met

Asked: Strictly below 50 °C: is that where Tm of GAAGTTGGAAACAACTCC (.(((((....))))).) sits?
Given back: Criterion met

Asked: In the record for GAGGCCGAAAGGCTACTC ((((((....)))..))) , is Tm less than 50 °C?
Given back: Criterion met

Asked: Is 50 °C strictly greater than the sequence's reported Tm? sequence: GTATTGCGAAAGCATTAC (((.(((....))).)))
Given back: Criterion met

Asked: # TODO verify Tm < 50 °C strictly for this sequence: GGTGTTGGAAACAATGCC ((..(((....)))..))
Given back: Criterion met

---

Experiment: melting temperature; fluorescence melt of hairpins on a sequencing array, two-state fit, raised by 9.35 °C to match UV melts
Conditions: sodium 0.088 M
# key: entry, value: Tm

Below: 5 sequences and their reported Tm.
>>> print(df.to_string())
                      construct_sequence  result_type  meas_value
0  GGTATAGCGAAAGCTACC (((..(((....))))))           Tm     39.6 °C
1      GATCGTCGCTACGATC ((((((....))))))           Tm       55 °C
2  GGCGTCGAAAGACCAGCC ((((((....)))..)))           Tm     50.9 °C
3  GTTGCAGGAAACTGTAAC (((.(((....))).)))           Tm     45.8 °C
4  GTTACTGGAAACAGTGAC ((.((((....)))).))           Tm     44.9 °C

// switching to the query sequence
Asked: Query (sequence): GTTGTCGAAAGACGCAAC ((((((....)))..))) ; field requested: Tm
Given back: 31.9 °C

---

Assay: melting temperature; fluorescence melt of hairpins on a sequencing array, two-state fit, raised by 9.35 °C to match UV melts
Conditions: sodium 0.088 M
Catalogue of Tm values
I only need the number, in °C, no unit after it.

>>> print(df.to_string())
                      construct_sequence  unit_abbreviation  meas_value
0  GCATACGGAAACGTACGC ((.((((....)))).))                 °C        44.2

Asked: Reported Tm for GCCGTCGAAAGACGCGGC ((((((....)))..))) : what is it?
Given back: 61.3

Asked: Tm lookup needed for GCCCTCGAAAGAGGCGGC ((((((....)))..))) , thanks.
Given back: 56

---

Test: folding enthalpy; higher = less favourable; fluorescence melt of hairpins on a sequencing array, two-state fit
Conditions: sodium 0.088 M
result type: folding enthalpy (kcal/mol)
Give the value in kcal/mol but do not write kcal/mol after it.

Guide cases for folding enthalpy, answers given:
In [3]: df
Out[3]:
                      construct_sequence  meas_value
0  GCAGCCGGAAACGGTTGC (((.(((....))).)))       -50.1
1  GTACGCGAAAGCGAGTAC ((((((....)))..)))       -13.8
2  GCGTCCGCGAAAGCGCGC (((..(((....))))))       -16.9
3  GATGACCGAAAGGTAATC (((.(((....))).)))       -23.4
4    GTCGAGCGAAAGCTGAC (((.(((....))))))         -20

// moving on: another record for folding enthalpy
Asked: Need folding enthalpy of GGCGAAGGAAACTTCGTC (.(((((....))))).) , thanks.
Given back: -35.7

---

Test: melting temperature; fluorescence melt of hairpins on a sequencing array, two-state fit, raised by 9.35 °C to match UV melts
Settings: sodium 0.088 M
result type: Tm (°C)
Enter your answer as a number in °C; do not include the unit.

                      construct_sequence  unit_abbreviation  meas_value
0        GATCGATCCTCGATC ((((((...))))))                 °C        52.1
1  GAACTAGGAAACTAGTTC (((((((....)))))))                 °C        53.8
2  GCTCCCGAAAGGGCGAGC ((((((....)))..)))                 °C        47.9
3          GGTGTGAAAACACC (((((....)))))                 °C        57.3

Asked: Endpoint output: Tm of GGAAACTCGAAAGAGTCC (((..(((....)))))) . Value?
Given back: 33.8

---

Test: folding enthalpy; higher = less favourable; fluorescence melt of hairpins on a sequencing array, two-state fit
Settings: sodium 0.088 M
Assign Satisfied whenever folding enthalpy does not fall below -20 kcal/mol; assign Not satisfied whenever it does.

>>> df
                  construct_sequence  discrete_label
0  GGAGCTGAAAAGCTCC ((((((....))))))   Not satisfied

Asked: Please indicate if the recorded folding enthalpy for GGTGGGGGAAACTCCGCC ((.((.(....).)).)) meets or exceeds -20 kcal/mol.
Given back: Not satisfied

Asked: Test whether the sequence GATGGGCGAAAGCCTATC (((.(((....))).))) records folding enthalpy of -20 kcal/mol or higher.
Given back: Not satisfied

Asked: // inclusive: folding enthalpy at least -20 kcal/mol? input: GGCTTAGGAAACTGAGCC ((((.((....)).))))
Given back: Not satisfied

Asked: State whether the measured folding enthalpy reaches -20 kcal/mol, counting equality as reaching it, for GTCTCCGGAAACGGAAAC ((.((((....)))).))
Given back: Satisfied

---

Assay: melting temperature; fluorescence melt of hairpins on a sequencing array, two-state fit, raised by 9.35 °C to match UV melts
Details: sodium 0.088 M
Parameter Tm: see the listing below.
Just the number please, in °C, no unit attached.

                      construct_sequence  meas_value
0  GTTTTAACGAAAGTTAAC (((..(((....))))))          27

Asked: Fill in the blank: the reported Tm of GTGAGCGGAAACGCTTAC ((.((((....)))).)) is ____.
Given back: 51.6

Asked: So what does the record say about Tm for GATCCTCTAGAGGATC ((((((....)))))) ?
Given back: 56.4

Asked: Reported Tm for GATCAAAATCTTGATC ((((((....)))))) : what is it?
Given back: 39.9

Asked: State the recorded Tm for this entry: GGCCGGGGAAACCCGACC ((.((((....)))).))
Given back: 57.2

Asked: # Tm lookup, item GCTACAGGAAACTGCAGC (((.(((....))).)))
Given back: 44.5

Asked: GET /values?readout=Tm&item= GATCTCTAGAGAGATC ((((((....))))))
Given back: 51
